- Assay protocol: Drug uptake in rat astrocytes at 10 ug/mL after 60 mins by HPLC-MS/MS analysis relative to initial content
- Format: ADME, cell-based
- Setup conditions: astrocyte, 1 h
Endpoint: Drug uptake (%)

Worked examples, 2 compounds total:
Mol smiles	Drug uptake [%]
CCCCCCCCOC(=O)CN(C)C(=N)N	0.22
CCCCCCCCCCCCOC(=O)CN(C)C(=N)N	11.5

A = CCCCCCCCCCCCCCCCCCOC(=O)CN(C)C(=N)N
B = CCCCCCCCCOC(=O)CN(C)C(=N)N
## Input I'd appreciate it if you could identify which of A and B has the greater Drug uptake. Answer by quoting the chosen item's label.
## Output B
(B: 7.83%, A: 0.06%)
